Origin of the recorded values: ChEMBL document CHEMBL1201862

- System: KM-20L2
- ASSAY_DETAILS: NCI tumour cell line growth inhibition, 48 h
Active and inactive are the calls of the source. No stated cut-off is given here; in the data, active = GI50 up to about 1.1 µM and inactive = higher.
Please state which outcome applies, choosing from active, inactive

How did this test come out for NC1CCC[C@H]1O (stereo not given in full) ?
inactive

How did this test come out for O=C1CCC2(c3ccc(F)cc3)Nc3ncccc3N12 (stereo not given) ?
inactive

How did this test come out for CC/C(=C(\c1ccccc1)c1ccc(OCC[N+](C)(C)C)cc1)c1ccccc1 [TAMOXIFEN METHYL IODIDE] ?
inactive

How did this test come out for CCCCC(=O)OC[n+]1ccc2c(C)c3[nH]c4ccccc4c3c(C)c2c1 ?
active

How did this test come out for Nc1nc(N)c2nc(CNc3ccc(C(=O)NC(CCCNC(=O)c4ccccc4C(=O)O)C(=O)O)cc3)cnc2n1 (stereo not given) ?
active

How did this test come out for N#CC1(C#N)C2C=CC(c3coc4cccc2c34)C1(C#N)C#N (stereo not given) ?
inactive

How did this test come out for CC(C)(C)C1=CC(=C(P(=O)(O)O)P(=O)(O)O)C=C(C(C)(C)C)C1=O ?
inactive

How did this test come out for O=C1OC(c2ccccc2)=N/C1=C/NC(Cc1c[nH]cn1)C(=O)O (stereo not given) ?
inactive

How did this test come out for O=C(CCCC(=O)Nc1ccc(Cl)cc1Cl)CC(=O)c1ccc2ccccc2c1 ?
inactive

How did this test come out for C=C(CN(CC(=C)C(=O)c1ccccc1)C(C)(C)C)C(=O)c1ccccc1 ?
inactive

* * *

- Tested on: SNB-19
- ASSAY_DETAILS: NCI tumour cell line growth inhibition, 48 h
Activity calls are given as the source filed them. Rule as the data show it: active = GI50 up to about 1.1 µM and inactive = higher. Positions of bridges follow the written chain, without caps; N, C: chain ends. Non-standard residues stand in square brackets, D forms with d. Residues, ends and D or L forms follow the SMILES beside them. *: point of attachment. PhAc = O=C(Cc1ccccc1)*
QUANTITY_KIND: GI50

I would be grateful if you could share the reported GI50 for O=C(Cc1ccccc1)N[C@@H]1COC(=O)[C@@H]2CCCN2C(=O)[C@@H]2CCCN2C1=O (PhAc-[dS]-Pro-Pro; ester 1-C) .
> 100 µM (inactive)

I would be grateful if you could share the reported GI50 for O=C1Nc2ccccc2/C1=N/NC(=S)Nc1cccc(Cl)c1 .
16.6 µM (inactive)

I would be grateful if you could share the reported GI50 for CC(=O)N1C(Nc2cccc3nc(C)ccc23)CCN1c1ccccc1 (stereo not given) .
> 10 µM (inactive)

I would be grateful if you could share the reported GI50 for O=S(=O)(O)c1ccc2c(/N=N/c3ccc(S(=O)(=O)O)c4ccccc34)c(O)c(S(=O)(=O)O)cc2c1 .
> 100 µM (inactive)

I would be grateful if you could share the reported GI50 for COc1ccc2c(c1)C(=O)CCc1cc(OC)c(OC)c(OC)c1-2 .
0.051 µM (active)

* * *

- System: SK-MEL-5
- ASSAY_DETAILS: NCI tumour cell line growth inhibition, 48 h
Active and inactive are the calls of the source. No stated cut-off is given here; in the data, active = GI50 up to about 1.1 µM and inactive = higher.
I'd appreciate it if you could supply GI50 values for the items below.

I would be grateful if you could share the reported GI50 for O=C1OC(c2ccccc2)=N/C1=C/NC(Cc1c[nH]cn1)C(=O)O (stereo unspecified) .
> 100 µM (inactive)

I would be grateful if you could share the reported GI50 for CC/C(Cl)=N\OC(=O)Nc1ccc(OC)c(C)c1 .
18.7 µM (inactive)

I would be grateful if you could share the reported GI50 for COc1ccc2c(C)c(Oc3c(Cl)c(Cl)c(O)c(C#N)c3C#N)oc2c1 .
> 100 µM (inactive)

I would be grateful if you could share the reported GI50 for Cc1cc(=O)oc2c3c(ccc12)OC(c1ccc(Br)cc1)CC3=O (stereo unspecified) .
11.6 µM (inactive)

I would be grateful if you could share the reported GI50 for O=C1c2ccccc2C(=O)c2c1ccc1c3ccccc3n(-c3ccccc3)c21 .
16.1 µM (inactive)

I would be grateful if you could share the reported GI50 for O=C(CSCC(=O)N/N=C\c1ccc(-c2ccccc2)cc1)N/N=C\c1ccc(-c2ccccc2)cc1 .
39.9 µM (inactive)

I would be grateful if you could share the reported GI50 for COc1cc(/C=C2\N=C(c3ccccc3)N(c3cc4cc(Sc5ccccc5)ccc4[nH]3)C2=O)ccc1O .
2.54 µM (inactive)

I would be grateful if you could share the reported GI50 for C/C=C1/CCC2c3[nH]c4ccccc4c3CCN2C1 (stereo unspecified) .
37.2 µM (inactive)

I would be grateful if you could share the reported GI50 for C1CCC(OC2CSC2)OC1 (stereo unspecified) .
> 100 µM (inactive)

I would be grateful if you could share the reported GI50 for O=C(CCCCCCCCCCc1ccccc1)C1=C(O)CCCC1=O .
18.1 µM (inactive)

I would be grateful if you could share the reported GI50 for CCCCC(=O)OC[n+]1ccc2c(C)c3[nH]c4ccccc4c3c(C)c2c1 .
1.39 µM (inactive)

* * *

- Test system: SNB-75
- ASSAY_DETAILS: NCI tumour cell line growth inhibition, 48 h
Activity calls are given as the source filed them. Cut-off read from the data, not from the text of the source: active = GI50 up to about 1.1 µM and inactive = higher.
Please state which outcome applies, choosing from active, inactive

How did this test come out for C#CCn1ncc2c(SCc3ccccc3)ncnc21 ?
inactive

How did this test come out for CC1=C(O)C(=O)C2C(=O)C1C(C)C2c1ccc(Cl)cc1 (stereo not given) ?
inactive

How did this test come out for COc1cc(S(=O)(=O)Nc2ccc(-c3csc(N4C(=O)CSC4c4cccc(Oc5ccccc5)c4)n3)cc2)ccc1Cl (stereo not given) ?
inactive

How did this test come out for C1CCC(OC2CSC2)OC1 (stereo not given) ?
inactive

How did this test come out for COc1ccc(-c2nc(SCC(=O)N/N=C/c3ccc([N+](=O)[O-])cc3)[nH]c2-c2ccc(OC)cc2)cc1 ?
inactive

How did this test come out for N#Cc1c(-c2ccc(F)cc2)c(-c2ccc(F)cc2)nn(CCO)c1=O ?
active

How did this test come out for Cc1cc(=O)oc2c3c(ccc12)OC(c1ccc(Br)cc1)CC3=O (stereo not given) ?
inactive

How did this test come out for CC/C(=C(\c1ccccc1)c1ccc(OCC[N+](C)(C)C)cc1)c1ccccc1 [TAMOXIFEN METHYL IODIDE] ?
inactive

How did this test come out for OCCSCC(O)Cn1cnc2c(O)nc(Nc3ccccc3)nc21 (stereo not given) ?
inactive

How did this test come out for CCNc1cc2c(cc1O)CC[C@@H]1[C@@H]2CC[C@]2(C)[C@@H](O)CC[C@@H]12 ?
active

How did this test come out for CCCCCCC(=O)C/C(=N/NC(N)=S)C(=O)NC1C2CC3CC(C2)CC1C3 (stereo not given) ?
inactive

How did this test come out for CN1C(=O)c2ccccc2NC(=O)C12O[C@@H]2c1ccccc1 (stereo not given in full) ?
inactive

How did this test come out for CN(C(=O)c1ccc(Cl)cc1)C(=S)N1CCN(c2ccccc2)CC1 ?
inactive

How did this test come out for Cc1cc(=O)n(-c2cc3cccccc-3n2)[nH]1 ?
inactive

How did this test come out for CCOC(=O)N1CCC(N[C@@H]2c3cc4c(cc3[C@@H](c3cc(OC)c(O)c(OC)c3)[C@H]3C(=O)OC[C@@H]32)OCO4)CC1 ?
inactive

How did this test come out for CCn1c2ccccc2c2cc(NC(=O)c3c(C)[nH]c(=O)[nH]c3=S)ccc21 ?
inactive

How did this test come out for S=C1SCC2CCCN12 (stereo not given) ?
inactive

How did this test come out for CCN(CC)C(=O)N1CN(c2ccccc2)C2(CCN(CCCC3(c4ccc(F)cc4)OCCO3)CC2)C1=O ?
inactive

How did this test come out for O=c1c2cc(-c3ccccc3)sc2nc2n1N=C(c1ccc(Cl)cc1)CS2 ?
inactive

How did this test come out for Cc1cn([C@H]2C[C@@H]3[C@@H](COC(CCl)N3O)O2)c(=O)[nH]c1=O (stereo not given in full) ?
inactive

* * *

- System: 786-0
- ASSAY_DETAILS: NCI tumour cell line growth inhibition, 48 h
Active and inactive are the calls of the source. Rule as the data show it: active = GI50 up to about 1.1 µM and inactive = higher.
Please state which outcome applies, choosing from label 1 (active), label 0 (inactive)

How did this test come out for CC1=C(O)C(=O)C2C(=O)C1C(C)C2c1ccc(Cl)cc1 (stereo not given) ?
label 0

How did this test come out for COc1ccc(-c2nc(SCC(=O)N/N=C/c3ccc([N+](=O)[O-])cc3)[nH]c2-c2ccc(OC)cc2)cc1 ?
label 0

How did this test come out for NC(=O)C(C(N)=O)=C(O)/C(O)=C/C(=O)c1ccccc1 ?
label 0

How did this test come out for CCOC(=O)N1CCC(N[C@@H]2c3cc4c(cc3[C@@H](c3cc(OC)c(O)c(OC)c3)[C@H]3C(=O)OC[C@@H]32)OCO4)CC1 ?
label 0

How did this test come out for CC(=O)N1C(Nc2cccc3nc(C)ccc23)CCN1c1ccccc1 (stereo not given) ?
label 0

How did this test come out for O/N=N/c1ccccn1.OCC1OC2OC3C(CO)OC(OC4C(CO)OC(OC5C(CO)OC(OC6C(CO)OC(OC7C(CO)OC(OC1C(O)C2O)C(O)C7O)C(O)C6O)C(O)C5O)C(O)C4O)C(O)C3O (stereo not given) ?
label 0

How did this test come out for CCCCCCCCCCCCCCCC(=O)OCC1OC(N2C(=O)/C(=N\NC(N)=S)c3ccc([N+](=O)[O-])cc32)C(OC(C)=O)C1OC(C)=O (stereo not given) ?
label 0

How did this test come out for COc1cc(/C=C/C(=O)c2sc(-n3nc(-c4ccccc4)cc3-c3ccccc3)nc2C)ccc1O ?
label 0

How did this test come out for NNc1nc2ccccc2s1 ?
label 0

How did this test come out for N#Cc1nc(-c2ccco2)oc1N ?
label 0

How did this test come out for O=C1C2=C(c3ccccc31)C(c1ccccc1Cl)N1C(=O)CCSC1=N2 (stereo not given) ?
label 0

How did this test come out for Cc1cn([C@H]2C[C@@H]3[C@@H](COC(CCl)N3O)O2)c(=O)[nH]c1=O (stereo not given in full) ?
label 0

How did this test come out for COc1ccc(C2=Nn3c(nc4sc(-c5ccccc5)cc4c3=O)SC2)cc1 ?
label 0

How did this test come out for CCCC/C=C1\CCC(CN2CCCCC2)C1=O (stereo not given) ?
label 0

How did this test come out for CCN(CC)C(=O)N1CN(c2ccccc2)C2(CCN(CCCC3(c4ccc(F)cc4)OCCO3)CC2)C1=O ?
label 0

How did this test come out for CCCCCCCCCCCC1NC(N)=NC(CCCO)=C1C(=O)OC (stereo not given) ?
label 0

How did this test come out for O=C1NCC(CSc2nc3cc(C4CCCc5c4[nH]c4ccccc54)ccc3o2)N1 (stereo not given) ?
label 0

How did this test come out for C=CC(Cl)(CBr)CCC(Br)=C(C)C (stereo not given) ?
label 0

How did this test come out for C[C@@]1(CO)[C@H](O)CC[C@@]2(C)[C@H]1CC[C@H]1C[C@@H]3C[C@@]12CC[C@@]3(O)COC(=O)CN ?
label 1

How did this test come out for C=CCc1cccc2cc(C(=O)Nc3nc(C45CC6CC(CC(C6)C4)C5)cs3)c(=O)oc12 ?
label 0

How did this test come out for O=c1/c(=C/c2ccc(-c3ccc(Cl)cc3Cl)o2)sc2n1[C@@H](c1ccc(Cl)cc1)C=C(c1cc(F)c(Cl)cc1Cl)N=2 ?
label 0

How did this test come out for Cc1cc(-c2ccccc2)nc(Nc2cc3ccccc3[nH]2)n1 ?
label 0

How did this test come out for Cc1cccc(NC(=O)/C=C/c2ccc([N+](=O)[O-])cc2)c1 ?
label 0

How did this test come out for COc1ccc(-n2c(N)c(C#N)[nH]c2=O)cc1 ?
label 0

How did this test come out for Cc1cc(=O)cc2sc3c(C)cccc3nc1-2 ?
label 0

How did this test come out for C=C(Br)C/N=C/N(C)C ?
label 0

How did this test come out for C=C1CC2(CCCC3(CC(=C)C(=O)O3)C2(C)C)OC1=O (stereo not given) ?
label 0

How did this test come out for Cc1ccc(-c2cc(-c3ccco3)nc(N)n2)o1 ?
label 0

How did this test come out for CN(/N=C\c1ccnc2ccccc12)c1ccc([N+](=O)[O-])cc1 ?
label 0

How did this test come out for O=C(O)C1CC(C2CCCCN2)CN2CCCCC12 (stereo not given) ?
label 0

How did this test come out for O=C(CCCC(=O)Nc1ccc(Cl)cc1Cl)CC(=O)c1ccc2ccccc2c1 ?
label 0

How did this test come out for O=C1N/N=C\c2ccc(cc2)OCc2cccc(n2)COc2ccc(cc2)/C=N\NC1=O ?
label 0

How did this test come out for CC[C@@]1(O)C(=O)OCc2c1cc1n(c2=O)Cc2c-1nc1ccccc1c2/C=N\NC(=O)C(N)Cc1ccc(O)cc1 (stereo not given in full) ?
label 1

How did this test come out for COc1ccc(CC(COS(=O)(=O)c2ccc(C)cc2)NS(=O)(=O)c2ccc(C)cc2)cc1 (stereo not given) ?
label 0

How did this test come out for COc1ccc2c(c1)C(=O)CCc1cc(OC)c(OC)c(OC)c1-2 ?
label 1

How did this test come out for O=[N+]([O-])c1nccn1COCCO ?
label 0

How did this test come out for O=C(CC(=O)N1N=C(c2ccccc2)C(/N=N/c2ccc(C(=O)O)cc2)C1=O)Nc1ccc(F)cc1 (stereo not given) ?
label 0

How did this test come out for O=C1C=CC(=O)[C@H]2C3C=CC(C4C3C3(Cl)C(Cl)=C(Cl)[C@]4(Cl)C3(Cl)Cl)[C@@H]12 (stereo not given in full) ?
label 0

How did this test come out for Cc1nc2c(=O)[nH]c3ccc(Cl)cc3c2o1 ?
label 0

How did this test come out for NNC(=O)c1c(-c2cccnc2)cnc2ccccc12 ?
label 0
